assay: Toxicity on nucleated cells, X 63 mice lymphoma B; type: cell-based; conditions: mouse, x 63 lymphoma cells, 1 hour 30, trypan blue, read-out: LD 50 (concentration leading to a mortality of 50%)
Measured Metric: CC50 at 1.5 h

CC(=O)NC[C@H]1OC(O)(CN[C@@H]2[C@H](O)[C@H](O[C@H]3/C=C/C=C/C=C/C=C/C=C/C=C/C=C/[C@H](C)[C@@H](O)[C@@H](C)[C@H](C)OC(=O)C[C@H](O)C[C@H](O)CC[C@@H](O)[C@H](O)C[C@H](O)C[C@]4(O)C[C@H](O)[C@@H](C(=O)O)[C@H](C3)O4)O[C@H](C)[C@H]2O)[C@@H](O)[C@@H]1O (some centres unmarked) = > 1000 µM

**Q:** So what's the measured CC50 at 1.5 h for this one? C[C@@H]1[C@H](O)[C@@H](C)/C=C/C=C/C=C/C=C/C=C/C=C/C=C/[C@H](O[C@@H]2O[C@H](C)[C@@H](O)[C@H](NCC3(O)O[C@H](C(N)=O)[C@@H](O)[C@@H]3O)[C@@H]2O)C[C@@H]2O[C@](O)(C[C@@H](O)C[C@@H](O)[C@H](O)CC[C@@H](O)C[C@@H](O)CC(=O)O[C@H]1C)C[C@H](O)[C@H]2C(=O)O (some centres unmarked)
**A:** > 1000 µM

* * *

test system: red corpuscles; experiment: Toxicity on red corpuscles (lysis), mice; format: cell-based; conditions: 37° C., 1 hour 30, 90 min, 90 min, read-out: LD 50 (dose which leads to lysis in 50% of the erythrocytes)
Measured Metric: HC50 (µM)
Field format: number, assumed µM, no unit text.

**Q:** So what's the measured HC50 for this one? CC1OC[C@@H](O)[C@H]([C@H](O)C(=O)CN[C@@H]2[C@H](O)[C@H](O[C@H]3/C=C/C=C/C=C/C=C/C=C/C=C/C=C/[C@H](C)[C@@H](O)[C@@H](C)[C@H](C)OC(=O)C[C@H](O)C[C@H](O)CC[C@@H](O)[C@H](O)C[C@H](O)C[C@]4(O)C[C@H](O)[C@@H](C(=O)O)[C@H](C3)O4)O[C@H](C)[C@H]2O)O1 (stereo partly shown) [AmB 22 G]
**A:** 10

* * *

test system: PBL; experiment: Toxicity on nucleated cells, human PBL; type: cell-based; details: human PBLs; AmB 12 derivative, comparison of different catalysts (Table 4); 90 min; read-out: LD 50 (the source's name)
Structures can show the parent of a compound that is named as a salt.
Measured Metric: CC50 (µM)
Field format: number, assumed µM, no unit text.

**Q:** So what's the measured CC50 for this one? C[C@@H]1[C@H](O)[C@@H](C)/C=C/C=C/C=C/C=C/C=C/C=C/C=C/[C@H](O[C@@H]2O[C@H](C)[C@@H](O)[C@H](NCC3(O)O[C@H](C(N)=O)[C@@H](O)[C@@H]3O)[C@@H]2O)C[C@@H]2O[C@](O)(C[C@@H](O)C[C@@H](O)[C@H](O)CC[C@@H](O)C[C@@H](O)CC(=O)O[C@H]1C)C[C@H](O)[C@H]2C(=O)O (stereo partly shown) [Acetic acid NMG salt]
**A:** 200
